Reported shrunken log2 fold change values are given for each entry in this list.
# Tested on: Escherichia coli TOP10;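 also: peptides expressed intracellularly from a pBAD plasmid library in pooled LB shake-flask culture, induced with 0.3% L-arabinose, DNA abundance read by NGS, three biological replicates, DESeq2 with apeglm shrinkage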
# measurement-description: shrunken log2 fold change of peptide-encoding DNA abundance (4.5 h post-induction vs induction); higher = less antimicrobial activity (less host growth inhibition)
# condition-notes: time post-induction: 4.5 h; library: site-saturation at positions 5, 18, 19, 20

biosequence: RRIRHRPPRLPRPRPRPCVQPRP
shrunken log2 fold change: -0.131

biosequence: RRIRARPPRLPRPRPRPADPPRP
shrunken log2 fold change: 0.611

biosequence: RRIRWRPPRLPRPRPRPKQMPRP
shrunken log2 fold change: 0.113

biosequence: RRIRERPPRLPRPRPRPEPIPRP
shrunken log2 fold change: -0.00736

biosequence: RRIRWRPPRLPRPRPRPHYMPRP
shrunken log2 fold change: -0.825

biosequence: RRIRFRPPRLPRPRPRPPYCPRP
shrunken log2 fold change: -0.448

biosequence: RRIRYRPPRLPRPRPRPTHYPRP
shrunken log2 fold change: -0.867

biosequence: RRIRKRPPRLPRPRPRPRWMPRP
shrunken log2 fold change: 0.273

biosequence: RRIRGRPPRLPRPRPRPRAIPRP
shrunken log2 fold change: 0.733

biosequence: RRIRMRPPRLPRPRPRPAGMPRP
shrunken log2 fold change: 0.655

biosequence: RRIRKRPPRLPRPRPRPISRPRP
shrunken log2 fold change: -0.00748

biosequence: RRIRVRPPRLPRPRPRPDPRPRP
shrunken log2 fold change: 0.395

biosequence: RRIRGRPPRLPRPRPRPVNCPRP
shrunken log2 fold change: 0.139

biosequence: RRIRVRPPRLPRPRPRPASIPRP
shrunken log2 fold change: -0.437

biosequence: RRIRWRPPRLPRPRPRPLMVPRP
shrunken log2 fold change: -0.0319
